Exercise: state measured log10 IC50 for each of the molecules provided.
Test system: JAK1-dependent STAT6 phosphorylation downstream of IL-13 stimulation in TF-1 human erythroleukemia cells
Assay: cells
Conditions: TF-1, read-out: IL-13-pSTAT6 IC50
Values are log10 of IC50 in nM.

O=C(N[C@H]1CN2CCC1CC2)c1ccc(Nc2nc3c(C4=CCN(C(=O)CCC(F)(F)F)CC4)cccn3n2)cc1 [Example 2-469] ... 1.92
CCOC(=O)N1CC=C(c2cccn3nc(Nc4ccc(C(=O)N5CC6(CCCN6C)C5)cc4)nc23)CC1 [Example 2-176] ... 0.91
Cc1ccc(C2CCN(C(=O)c3ccc(Nc4nc5c(C6=CCN(C(=O)CCC(F)(F)F)CC6)cccn5n4)cc3)CC2)nc1 [Example 2-215] ... 1.13
O=C(CCC(F)(F)F)N1CC=C(c2cccn3nc(Nc4ccc(C(=O)N5CCC6(CCCN6)CC5)cc4)nc23)CC1 [Example 2-198] ... 1.73

Please give log10 IC50 for each item listed below.
1. CN1CCC(N(C)C(=O)c2ccc(Nc3nc4c(C5=CCN(C(=O)CCO)CC5)cccn4n3)cc2)CC1 [Example 2-9]
2. CC(C)(CNC(=O)c1ccc(Nc2nc3c(C4=CCN(C(=O)CCC(F)(F)F)CC4)cccn3n2)cc1)N1CCOCC1 [Example 2-213]
3. CCN1CCC(CN(C)C(=O)c2ccc(Nc3nc4c(C5=CCN(C(=O)CCC(F)(F)F)CC5)cccn4n3)cc2)C1 (centres unmarked) [Example 2-39]
4. CNC(=O)C1CN(C(=O)c2ccc(Nc3nc4c(C5=CCN(C(=O)CCC(F)(F)F)CC5)cccn4n3)cc2)CCN1Cc1ccccc1 (centres unmarked) [Example 2-342]
5. O=C(NC1CCN(C2CCCC2)CC1)c1ccc(Nc2nc3c(C4=CCN(C(=O)CCC(F)(F)F)CC4)cccn3n2)cc1 [Example 2-49]
6. CNC(=O)C1CN(C(=O)c2ccc(Nc3nc4c(N5CCC(O)(c6ccc(Cl)cc6)CC5)cccn4n3)cc2)CCN1Cc1ccccc1 (centres unmarked) [Example 1-153]
7. O=C(NCC1COC2(CCNCC2)C1)c1ccc(Nc2nc3c(N4CCC(O)(c5ccc(Cl)cc5)CC4)cccn3n2)cc1 (centres unmarked) [Example 1-220]

2.79
0.75
1.54
1.21
0.58
1.41
2.80

Please give log10 IC50 for each item listed below.
1. CC(C)(CNC(=O)c1ccc(Nc2nc3c(N4CCC(CO)(c5ccc(Cl)cc5)CC4)cccn3n2)cc1)N1CCOCC1 [Example 1-285]
2. CC1CC(C)CN(CCNC(=O)c2ccc(Nc3nc4c(C5=CCN(C(=O)CCC(F)(F)F)CC5)cccn4n3)cc2)C1 (centres unmarked) [Example 2-269]

1. 1.34
2. 0.71

Item O=C(c1ccc(Nc2nc3c(N4CCC(CO)(c5ccc(Cl)cc5)CC4)cccn3n2)cc1)N1CCC(c2ccccn2)CC1 [Example 1-276] has what recorded log10 IC50?
1.98

----------
System: JAK1-dependent STAT6 phosphorylation downstream of IL-13 stimulation in TF-1 human erythroleukemia cells
Assay: cells
Conditions: TF-1, read-out: IL-13-pSTAT6 IC50
pIC50: −log10 of the molar value.
Binary call on pIC50: 1 from 7 upward, 0 beneath that.

CN1CCC(N(C)C(=O)c2ccc(Nc3nc4c(C5=CCN(C(=O)OCc6ccccc6)CC5)cccn4n3)cc2)CC1 [Example 2-351] ... 1

Does O=C(NCC1CNCCO1)c1ccc(Nc2nc3c(N4CCC(O)(c5ccc(Cl)cc5)CC4)cccn3n2)cc1 (centres unmarked) [Example 1-188] have a reported pIC50 of at least 7?
1

Does CCOC(=O)N1CC=C(c2cccn3nc(Nc4ccc(C(=O)N5CCC(Cc6cccnc6)C5)cc4)nc23)CC1 (centres unmarked) [Example 2-426] have a reported pIC50 of at least 7?
1

Does O=C(NCCCN1CCOCC1)c1ccc(Nc2nc3c(C4=CCN(C(=O)CCC(F)(F)F)CC4)cccn3n2)cc1 [Example 2-271] have a reported pIC50 of at least 7?
1

Does CCOC(=O)N1CC=C(c2cccn3nc(Nc4ccc(C(=O)NCCC5CCCNC5)cc4)nc23)CC1 (centres unmarked) [Example 2-416] have a reported pIC50 of at least 7?
0

Does Cc1cc(N(C)C)cc(C2CCCN2C(=O)c2ccc(Nc3nc4c(C5=CCN(C(=O)CCC(F)(F)F)CC5)cccn4n3)cc2)n1 (centres unmarked) [Example 2-92] have a reported pIC50 of at least 7?
1

----------
Exercise: state measured pIC50 for each of the compounds provided.
Test system: JAK1-dependent STAT6 phosphorylation downstream of IL-13 stimulation in TF-1 human erythroleukemia cells
Assay: cells
Conditions: TF-1, read-out: IL-13-pSTAT6 IC50
One number for each entry, as −log10 of the molar value.

These solved cases illustrate the format of a correct answer.
O=C(CCC(F)(F)F)N1CC=C(c2cccn3nc(Nc4ccc(C(=O)N5CC6CNCC6C5)cc4)nc23)CC1 (stereo not drawn) ... 6.74
NCC1CCN(C(=O)c2ccc(Nc3nc4c(N5CCC(O)(c6ccc(Cl)cc6)CC5)cccn4n3)cc2)CC1 ... 6.60
O=C(CCC(F)(F)F)N1CC=C(c2cccn3nc(Nc4ccc(C(=O)N5CCC(Cc6ccccn6)CC5)cc4)nc23)CC1 ... 7.88

Please give pIC50 for each item listed below.
1. CCOC(=O)N1CC=C(c2cccn3nc(Nc4ccc(C(=O)OC5CCN(C)CC5)cc4)nc23)CC1
2. CN(Cc1ccccc1)C1CCCN(C(=O)c2ccc(Nc3nc4c(C5=CCN(C(=O)CCC(F)(F)F)CC5)cccn4n3)cc2)C1 (stereo not drawn)
3. CN(CCc1ccccn1)C(=O)c1ccc(Nc2nc3c(C4=CCN(C(=O)CCC(F)(F)F)CC4)cccn3n2)cc1
4. O=C(CCC(F)(F)F)N1CC=C(c2cccn3nc(Nc4ccc(C(=O)N5CCCC(N6CCCCCC6)C5)cc4)nc23)CC1 (stereo not drawn)
5. CCOC(=O)N1CC=C(c2cccn3nc(Nc4ccc(C(=O)NCCC5CCCN5C)cc4)nc23)CC1 (stereo not drawn)
6. CN1CCC(N(C)C(=O)c2ccc(Nc3nc4c(N5CCC(CC#N)(c6ccc(Cl)c(F)c6)CC5)cccn4n3)cc2)CC1
7. O=C(CCC(F)(F)F)N1CC=C(c2cccn3nc(Nc4ccc(C(=O)N5CCC(N6CCOCC6)CC5)cc4)nc23)CC1

1. 7.63
2. 7.17
3. 8.03
4. 8.13
5. 7.65
6. 7.74
7. 8.16

----------
System: JAK1-dependent STAT6 phosphorylation downstream of IL-13 stimulation in TF-1 human erythroleukemia cells
Experiment: cells
Details: TF-1, read-out: IL-13-pSTAT6 IC50
pIC50: −log10 of the molar value.
Binary call on pIC50: fulfilled from 8 upward, not fulfilled beneath that.

Past entries and their recorded results:
O=C(CCC(F)(F)F)N1CC=C(c2cccn3nc(Nc4ccc(C(=O)N5CCC6(CCN6)CC5)cc4)nc23)CC1 ... not fulfilled
O=C(CCC(F)(F)F)N1CC=C(c2cccn3nc(Nc4ccc(C(=O)N5CCO[C@@H]6CNC[C@H]65)cc4)nc23)CC1 ... not fulfilled
O=C(c1ccc(Nc2nc3c(N4CCC(O)(c5ccc(Cl)cc5)CC4)cccn3n2)cc1)N1CCC2(CC1)CNCCO2 ... not fulfilled

Does CCOC(=O)N1CC=C(c2cccn3nc(Nc4ccc(C(=O)NC5CCN(C)CC5)cc4)nc23)CC1 have a reported pIC50 of at least 8?
not fulfilled

Does CC1CCN(C2CCN(C(=O)c3ccc(Nc4nc5c(C6=CCN(C(=O)CCC(F)(F)F)CC6)cccn5n4)cc3)CC2)CC1 have a reported pIC50 of at least 8?
fulfilled

----------
System: JAK1-dependent STAT6 phosphorylation downstream of IL-13 stimulation in TF-1 human erythroleukemia cells
Test: cells
Settings: TF-1, read-out: IL-13-pSTAT6 IC50
Counter-ions that a name gives are not always drawn.
Exercise: state measured IC50 for each of the molecules provided.
Give bare numbers, in nM.

Please give IC50 for each item listed below.
1. O=C(NCCN1CCOCC1)c1ccc(Nc2nc3c(N4CCC(O)(c5ccc(Cl)cc5)CC4)cccn3n2)cc1
2. CCOC(=O)N1CC=C(c2cccn3nc(Nc4ccc(C(=O)NCC5CCCN(C)C5)cc4)nc23)CC1 (centres unmarked)
3. CN1CCC(N(C)C(=O)c2ccc(Nc3nc4c(C5=CCN(C(=O)N6CCOCC6)CC5)cccn4n3)cc2)CC1
4. CN1C(C)(C)CC(NC(=O)c2ccc(Nc3nc4c(C5=CCN(C(=O)CCC(F)(F)F)CC5)cccn4n3)cc2)CC1(C)C
5. CN1CCC(N(C)C(=O)c2ccc(Nc3nc4c(C5=CCN(C(=O)C6CCOC6)CC5)cccn4n3)cc2)CC1 (centres unmarked) [Example 2-107, hydrochloride]
6. CN(Cc1ccncc1)C(=O)c1ccc(Nc2nc3c(N4CCC(O)(c5ccc(Cl)cc5)CC4)cccn3n2)cc1
7. O=C(CCC(F)(F)F)N1CC=C(c2cccn3nc(Nc4ccc(C(=O)N5CC6(CCNCC6)C5)cc4)nc23)CC1
8. CC(=O)N1CC2(C1)CN(C(=O)c1ccc(Nc3nc4c(N5CCC(O)(c6ccc(Cl)cc6)CC5)cccn4n3)cc1)C2

1. 14
2. 29.5
3. 1260
4. 9.2
5. 422
6. 15.6
7. 60
8. 27.4
